Test system: human microvascular endothelial cell (HMVEC) migration
ASSAY_PROCEDURE: Cell migration assay (wounding) on HMVEC
Assay type: cell-based
DETAILS: HMVEC, 96 hours after transfection; FIG. 7
PROPERTY_LABEL: effect of siRNA on growth factor induced endothelial cell migration

SUBSTANCE: siRNA directed against P4HA: Double-stranded siRNA to P4HA1: sense GGAUUUGUUGGGCAUCCAGtt (SEQ ID NO: 11), antisense CUGGAUGCCCAACAAAUCCtt (SEQ ID NO: 12) (sense GGAUUUGUUGGGCAUCCAGTT; antisense CUGGAUGCCCAACAAAUCCTT; lower-case overhang letters stated to be dideoxynucleotides, upper case undefined, further chemistry not given here)
RESULT: inhibited
--
SUBSTANCE: siRNA directed against ARHGEF: Double-stranded siRNA to ARHGEF7: sense GCCUGUGUCUCCCAAAUCAtt (SEQ ID NO: 5), antisense UGAUUUGGGAGACACAGGCtt (SEQ ID NO: 6) (sense GCCUGUGUCUCCCAAAUCATT; antisense UGAUUUGGGAGACACAGGCTT; lower-case overhang letters stated to be dideoxynucleotides, upper case undefined, further chemistry not given here)
RESULT: inhibited
--
SUBSTANCE: siRNA directed against Rin2: Double-stranded siRNA to Rin2: sense CUGAAACAGGAGAUGGUGCtt (SEQ ID NO: 8), antisense GCACCAUCUCCUGUUUCAGtt (SEQ ID NO: 9) (sense CUGAAACAGGAGAUGGUGCTT; antisense GCACCAUCUCCUGUUUCAGTT; lower-case overhang letters stated to be dideoxynucleotides, upper case undefined, further chemistry not given here)
RESULT: inhibited
